Reference source for all entries: the supplement of paper PMC4466140

target-desc: AgSla1-D3
experimental-protocol: SPOT peptide array binding signal intensity (averaged, normalized) (arbitrary units (background-subtracted, floor 0; scale differs between SH3 domains)); higher = stronger binding of the SH3 domain to the peptide
Would you please tag the item yes (1) when its SPOT peptide array binding signal intensity is 10 or above, and no (0) when it is below?

# binder, class
rows = [
    ("IKTRSVPKIPSIESV", "no (0)"),
    ("VYTRTAFQIPGDDKI", "no (0)"),
    ("RPKRRAPPPVPKKPS", "yes (1)"),
    ("TKFRISLGLPVGAIM", "yes (1)"),
    ("RKNRAPPQRPRFNRE", "yes (1)"),
]

**Q:** I'd appreciate it if you could say whether NPTKSPPPPPSPSTM has SPOT peptide array binding signal intensity at least equal to 10.
**A:** yes (1)

**Q:** Given LRIKRKPVQTFFEFI , state whether its SPOT peptide array binding signal intensity is at least 10.
**A:** yes (1)

**Q:** Can LTRRFPFLFPFDTRM be said to have SPOT peptide array binding signal intensity at or above 10?
**A:** no (0)

**Q:** Could you please find out whether QQNRPLPQLPNRNNR has SPOT peptide array binding signal intensity that meets 10 or exceeds it?
**A:** no (0)
